# Tested on: MCF-7 (estrogen receptor positive breast cancer cells)
# Experiment summary: Anti-proliferation activity against MCF-7 cells (MTS/PMS)
# Assay type: cell-based
# Applied conditions: Table 13, various sugars on 8-methyl coumarin; 72 hours; read-out: IC50 MCF7
pIC50: −log10 of the molar value.
Property label: pIC50

- Compound structure string: "CO[C@@H]1[C@@H](O)[C@@H](O)[C@H](Oc2ccc3cc(NC(=O)c4cccc(N)c4)c(=O)oc3c2C)OC1(C)C"
  Assay value: 4.43

* * *

# Test system: MCF-7 (estrogen receptor positive breast cancer cells)
# Experiment summary: Anti-proliferation activity against MCF-7 cells (MTS/PMS)
# Format: cell-based
# Applied conditions: Table 8, unsaturated azasugar analogues; 72 hours; read-out: IC50 MCF-7
pIC50: −log10 of the molar value.
Property label: pIC50

- Compound structure string: "CO[C@@H]1[C@@H](O)[C@@H](O)[C@H](Oc2ccc3cc(NC(=O)c4ccccc4N)c(=O)oc3c2C)OC1(C)C"
  Assay value: 5.76

Data origin: patent US9120774B2
